B1: Protein piccolo, residues 1058 to 1114; numbered along this chain, Q9Y6V0 (parent)
chain: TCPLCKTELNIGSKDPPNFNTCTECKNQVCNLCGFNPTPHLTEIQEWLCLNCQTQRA

- Variants of: B1
- Assay details: abundance fitness (aPCA) (normalised: wild type 0, dead -1); higher = more abundant; growth selection in yeast, the domain comes from the species named
- Test settings: Homo sapiens
Quantity kind: abundance fitness
Number only, no unit.

Here are 8 variants together with their reported answers.
>  <Variant>
C49E

>  <Measurement>
-1.01

$$$$
>  <Variant>
P3Q

>  <Measurement>
-0.506

$$$$
>  <Variant>
E43Y

>  <Measurement>
-0.443

$$$$
>  <Variant>
S13F

>  <Measurement>
-0.148

$$$$
>  <Variant>
K26Y

>  <Measurement>
0.148

$$$$
>  <Variant>
T1S

>  <Measurement>
-0.129

$$$$
>  <Variant>
E8F

>  <Measurement>
-0.431

$$$$
>  <Variant>
P3W

>  <Measurement>
-0.984

$$$$

For T1I the variant record lists abundance fitness as -0.024
